The following molecules are listed with their measured pest or weed control at 1000 g/ha values.
Tested on: Lolium perenne (LOLPE)
Assay: Post-emergence efficacy, glasshouse
Type: in vivo
Conditions: Lolium perenne, post-emergence, 312 h; Application Rate 1000 g/Ha; evaluated after 13 days; 100=total damage to plant, 0=no damage to plant; read-out: Control of weed species after post-emergence application, LOLPE
Please reply with the bare figure in % and do not write the unit itself.

- STRUCTURE_SMILES: "O=P([O-])(O)c1c[n+](CCO)nc2ccccc12"
  TARGET_UNDER_TEST: "Lolium perenne (LOLPE)"
  METRIC_NAME: "pest or weed control at 1000 g/ha"
  TEST_RESULT: 0
- STRUCTURE_SMILES: "CCP(=O)([O-])c1c[n+](C)nc2ccccc12"
  TARGET_UNDER_TEST: "Lolium perenne (LOLPE)"
  METRIC_NAME: "pest or weed control at 1000 g/ha"
  TEST_RESULT: 40

Record for `CCS(=O)(=O)[N-]C(=O)c1c[n+](C)nc2ccccc12` under target or system Lolium perenne (LOLPE): pest or weed control at 1000 g/ha reported as 40

Record for `C[n+]1cc(C(=O)[O-])c2ccccc2n1` under target or system Lolium perenne (LOLPE): pest or weed control at 1000 g/ha reported as 50

====

Test system: Ipomoea hederacea (IPOHE)
Test: Post-emergence efficacy, glasshouse
Assay type: in vivo
Conditions: Ipomoea hederacea, post-emergence, 312 h; Application Rate 1000 g/Ha; evaluated after 13 days; 100=total damage to plant, 0=no damage to plant; read-out: Control of weed species after post-emergence application, IPOHE
The following molecules are listed with their measured pest or weed control at 1000 g/ha values.
Please reply with the bare figure in % and do not write the unit itself.

Study these solved cases before continuing.
- MOLECULE: "C[n+]1cc(S(=O)(=O)[O-])c2ccccc2n1 [Compound A6, 2-methylcinnolin-2-ium-4-sulfonate]"
  TARGET_UNDER_TEST: "Ipomoea hederacea (IPOHE)"
  METRIC_NAME: "pest or weed control at 1000 g/ha"
  TEST_RESULT: 0
- MOLECULE: "COC(=O)C[n+]1cc(C(=O)[N-]S(C)(=O)=O)c2ccccc2n1"
  TARGET_UNDER_TEST: "Ipomoea hederacea (IPOHE)"
  METRIC_NAME: "pest or weed control at 1000 g/ha"
  TEST_RESULT: 10
- MOLECULE: "C[n+]1cc(C(=O)[N-]S(=O)(=O)C2CC2)c2ccccc2n1"
  TARGET_UNDER_TEST: "Ipomoea hederacea (IPOHE)"
  METRIC_NAME: "pest or weed control at 1000 g/ha"
  TEST_RESULT: 70
- MOLECULE: "O=C(O)C[n+]1cc(C(=O)[O-])c2ccccc2n1"
  TARGET_UNDER_TEST: "Ipomoea hederacea (IPOHE)"
  METRIC_NAME: "pest or weed control at 1000 g/ha"
  TEST_RESULT: 20
- MOLECULE: "C[n+]1cc(P(C)(=O)O)c2ccccc2n1 [Compound A7]"
  TARGET_UNDER_TEST: "Ipomoea hederacea (IPOHE)"
  METRIC_NAME: "pest or weed control at 1000 g/ha"
  TEST_RESULT: 70

Record for `COP(=O)([O-])c1c[n+](CC(=O)NS(C)(=O)=O)nc2ccccc12` under target or system Ipomoea hederacea (IPOHE): pest or weed control at 1000 g/ha reported as 30
